Origin of measurements: ChEMBL document CHEMBL1201862

System: SK-MEL-2
Assay: NCI tumour cell line growth inhibition, 48 h
Calls of active or inactive are those of the source. Cut-off read from the data, not from the text of the source: active = GI50 up to about 1.1 µM and inactive = higher.
EXPERIMENTAL READOUT: GI50

Check out these entries, answers already filled in.
| COMPOUND | GI50 |
| --- | --- |
| CC1(C)CC[C@]2(C(=O)O)CC[C@]3(C)C(=CC[C@@H]4[C@@]5(C)C[C@H](O)[C@H](O)[C@@](C)(C(=O)O)[C@@H]5CC[C@]43C)[C@@H]2C1 | > 100 µM (inactive) |
| OC12c3ccccc3C1(N1CCOCC1)CCCCC21OCCCO1 (stereo not given) | > 100 µM (inactive) |
| CC(=O)OCC1OC(n2cccnc2=O)C(OC(C)=O)C1OC(C)=O (stereo not given) | > 100 µM (inactive) |
| Cc1cc(O)nc(NN2C(Cl)C(=O)C2c2ccc([N+](=O)[O-])cc2)n1 (stereo not given) | 6.07 µM (inactive) |

Turning to the following compound.
Please give the measured GI50 for this compound: CN(C)CCN(C)CCC(=O)/C=C/c1ccccc1
39.2 µM (inactive)

###

Tested on: OVCAR-3
Assay: NCI tumour cell line growth inhibition, 48 h
Activity calls are given as the source filed them. Rule as the data show it: active = GI50 up to about 1.1 µM and inactive = higher.
Assign a class; possible classes are y for active, n for inactive

Record excerpt, results attached:
| COMPOUND | GROUP LABEL |
| --- | --- |
| NCCN1C(=O)c2ccccc2C1(O)c1ccc(Cl)cc1 (centres undefined) | n |
| CC(=NNC(=S)Nc1cccc(C)c1)c1cccc(C(C)=NNC(=S)Nc2cccc(C)c2)n1 | n |
| CCOC(=O)/C(=C\NC(=S)Nc1ccc(OCC)cc1)C(=O)c1ccccc1 | n |
| COC(=O)[C@]1(C)C(OC)=CC(=O)C2C1[C@H]1CCC[C@@H]21 (some centres undefined) | n |
| COc1ccc(-c2coc3c4c(ccc3c2=O)OCO4)cc1OC | n |
| COC(=O)C[C@](O)(CCC(C)(C)O)C(=O)O[C@@H]1C(OC)=C[C@]23CCCN2CCc2cc4c(cc2[C@H]13)OCO4 [HARRINGTONINE] | y |
| Cc1ccc(-c2cc(=O)c3cc(C)c(C)c(C(=O)O)c3o2)cc1C | n |
| Cc1nc(C(N)=S)sc1C(=O)C/C(=N/N)C(=O)Nc1ccc(Cl)cc1 | n |

Please look at the following compound next.
Test call for this compound, please: COP(=O)(OC)C(=O)N1N(c2ccc([N+](=O)[O-])cc2)C(=O)C(C)NC1(NNc1ccc([N+](=O)[O-])cc1)P(=O)(OC)OC (centres undefined)
n

###

Tested on: OVCAR-3
Assay: NCI tumour cell line growth inhibition, 48 h
Active and inactive are the calls of the source. Rule as the data show it: active = GI50 up to about 1.1 µM and inactive = higher.
EXPERIMENTAL READOUT: GI50

Form field - read-out: GI50; system: OVCAR-3; submitted item: CCC(C#N)(c1ccccc1)N(CCc1ccccc1)C(=O)c1ccccc1 (stereo not given)
85.9 µM (inactive)

For C[C@]12CC[C@H](OC3CCCCO3)CC1=CC[C@@H]1C2CC[C@]2(C)/C(=N/O)CCC12 (stereo not given in full) then?
17 µM (inactive)

For COC(=O)C1CCC(N2C(=O)CCC2C(=O)OC)=N1 (stereo not given) then?
> 100 µM (inactive)

###

Tested on: MOLT-4
Assay: NCI tumour cell line growth inhibition, 48 h
Active and inactive are the calls of the source. Rule as the data show it: active = GI50 up to about 1.1 µM and inactive = higher. Where a SMILES comes first, the peptide text is derived from it. [ ]: non-standard residue; d: D form. The star is where a group is joined. NMeF = CN[C@@H](Cc1ccccc1)C(=O)O; NMeV = CN[C@H](C(=O)O)C(C)C; Boc = CC(C)(C)OC(=O)*; OBn = c1ccc(CO*)cc1
Assign a class; possible classes are t (active), f (inactive)

Record excerpt, results attached:
| COMPOUND | GROUP LABEL |
| --- | --- |
| CCOC(=O)/C(=C\NC(=S)Nc1ccc(OCC)cc1)C(=O)c1ccccc1 | f |
| CN(C(=O)c1cccs1)C(=S)N1CCN(c2ccccn2)CC1 | f |
| O=C(O)CCCSc1ccccc1 | f |
| C=C(Cl)C(Cl)(CCl)CCC(Br)C(C)(C)Br (stereo not given) | f |
| CCN(C(=O)N[C@@H](CC(C)C)C(=O)NCC(=O)OC)c1ccccc1 | f |
| CC(C)[C@@H](C(=O)N1CCC[C@H]1C(=O)OCc1ccccc1)N(C)C(=O)[C@H](C(C)C)N(C)C(=O)[C@H](Cc1ccccc1)N(C)C(=O)[C@H](NC(=O)OC(C)(C)C)C(C)C (Boc-[dV][NMeF][NMeV][NMeV]P-OBn) | f |
| OC12c3ccccc3C1(N1CCOCC1)CCCCC21OCCCO1 (stereo not given) | f |
| C[C@]12CC[C@H](OC3CCCCO3)CC1=CC[C@@H]1C2CC[C@]2(C)/C(=N/O)CCC12 (stereo not given in full) | f |

Test call for this compound, please: CCOC(=O)c1nnc2c(C(=O)OCC)c3ccccc3n2c1N
f

For CC(C)CCC1(O)O[C@H]2C[C@H]3[C@@H]4CCC5CC(=O)C=C[C@]5(C)[C@H]4CC[C@]3(C)[C@H]2[C@@H]1C (stereo not given in full) then?
f

For O=C1CC[C@@]23CC(=O)O[C@@H]2CCCC3C1 (stereo not given in full) then?
f

For CC(Oc1ccccc1)C(=O)NN (stereo not given) then?
f

For CCCCCCCCCCCCCCCCCCNc1nc(=O)n(C2CC(O)C(COP(=O)(O)OCC(COP(=O)(O)OC3C(CO)OC(n4ccc(N)nc4=O)C3O)OCCCCCCCCCCCCCCCCCC)O2)cc1F (stereo not given) then?
t

For Nc1c(F)c(F)c2c(c1F)N(CCCCCl)c1ccccc1S2 then?
f
